Target: T1, SNF RRM1 (Drosophila melanogaster, UniProt P43332 1-104)
T1 sequence: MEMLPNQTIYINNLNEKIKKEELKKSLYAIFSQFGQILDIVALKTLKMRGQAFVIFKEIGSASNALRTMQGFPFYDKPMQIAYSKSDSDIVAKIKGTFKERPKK
Experiment: SPR; n = 1.20; SPR 25 C: 10 mM HEPES pH 7.4, 150 mM NaCl, 3 mM EDTA, 0.05% P-20 (U1hpII); 50 mM PBS pH 7.0, 1 mM EDTA, 0.05% P-20 (poly(U)). EMSA: 4% native gel, protein ~1 uM, buffer by reference
Details: protein: recombinant; tags: pET-21d(+) vector; label: biotin
test_readout: Kd

What does the record list as Kd for CCCCUCCCCUUUUUUUUUAUUUUUUUU (ssRNA, 5' biotin) [2U-run poly(U) RNA (SPR)] ?
~6 µM
